- Test system: Chordin-like protein 2 (CHRDL2)
- assay.text: CHRDL2 small-molecule binders, primary screen, biochemical, small-molecule microarray, 635 nm fluorescence (AID 1126);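 note: printed compound slides probed with Chrdl2 protein at 4 µg/mL for 1 h at 4 C; score merges 667 nm emission intensity with signal to noise over three replicate slides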
- study.conditions: small-molecule microarray binding, fluorescence 635 nm; higher = more signal
// 0 strictly below 0.3 in composite z-score; 1 otherwise

- compound: "C#CCCCON=C1C[C@@H](O)[C@@H](O)[C@@H]2[C@@H]3C(=O)N(CCC(=O)OCC)C(=O)[C@@H]3CC[C@H]12"
  label.class: 0
- compound: "CCN1C(=O)[C@H]2[C@H]3[C@H](O)[C@H](O)CC(=NO[C@@H](C)c4cn([C@H](CO)Cc5ccccc5)nn4)[C@@H]3CC[C@H]2C1=O"
  label.class: 1
- compound: "CCCNC(=O)OC[C@H]1O[C@H](c2ccccc2)C=C[C@@H]1Oc1ccc(OC)cc1"
  label.class: 0
- compound: "CCOC(=O)[C@H](CC(C)C)NC(=O)CCC1CC(OC(=O)NCc2cccc3ccccc23)CC2(CCCC(COC(=O)NCC3CCCCC3)O2)O1 (some centres not stated)"
  label.class: 1
- compound: "COC(=O)CC=C[C@@H](C)[C@@H](C=NOCC[C@@H]1C=C[C@H](OC(C)=O)[C@@H](COC(C)=O)O1)OC"
  label.class: 1
- compound: "COC(=O)[C@H](C)NC(=O)CCC1CC(OC(=O)NCc2cccc3ccccc23)CC2(CCCC(COC(=O)NCC(c3ccccc3)c3ccccc3)O2)O1 (some centres not stated)"
  label.class: 0
- compound: "COC(=O)CC=C[C@@H](C)[C@@H](C=NO[C@@H]1O[C@H](COC(C)=O)[C@@H](OC(C)=O)[C@H](OC(C)=O)[C@H]1OC(C)=O)OC"
  label.class: 0
